Data origin: patent US20240424112A1

# Subject Of Test: BRD4 long isoform (Homo sapiens)
# Construct: endogenous in cells; host or cells: MDA-MB-468
# Method Description: BRD4 degradation assay (Western blot, MDA-MB-468 cells), long isoform
# Type: cell-based
# Condition Parameters: 24 h, 5 μM, MDA-MB-468, n = 2
# Experimental: BRD4 Degradation Assay Protocol Summary MDA-MB-468 cells were cultured routinely in DMEM supplemented with 10% heat inactivated FBS and 1% Penicillin-Streptomycin (Thermofisher Scientific) at 37° C. 5% CO2. […] Lysates were clarified by centrifugation at 13,000 RPM for 10 minutes and the protein concentration of the resulting supernatants determined by BCA assay (ThermoFisher Scientific) as per manufacturer's instructions. […]
Assay Metric: % Mean Degradation of BRD4
Please make sure the unit comes right after the number.

Known % Mean Degradation of BRD4 results, listed for orientation:
{"Compound": "Cc1sc2c(c1C)C(c1ccc(Cl)cc1)=N[C@@H](CC(=O)NCC(=O)NCCOCc1c(COc3ccc(Cl)c4c3[C@@H](CN3CC5(CC5)CC3=O)N(C(=O)[C@@H]3CCCC[C@]3(C)C(=O)O)CC4)nnn1C)c1nnc(C)n1-2", "Meas Value": "75%"}
{"Compound": "Cc1sc2c(c1C)C(c1ccc(Cl)cc1)=N[C@@H](CC(=O)NCCC(=O)NCCOCc1c(COc3ccc(Cl)c4c3[C@@H](CN3CC5(CC5)CC3=O)N(C(=O)[C@@H]3CCCC[C@]3(C)C(=O)O)CC4)nnn1C)c1nnc(C)n1-2", "Meas Value": "43%"}
{"Compound": "Cc1sc2c(c1C)C(c1ccc(Cl)cc1)=N[C@@H](CC(=O)NCCOCCOCCNC(=O)[C@@]1(C)CCCC[C@H]1C(=O)N1CCc3c(Cl)ccc(OCc4nnn(C)c4C)c3[C@H]1CN1CC3(CC3)CC1=O)c1nnc(C)n1-2 [Comparative Example 3, reference compound]", "Meas Value": "49%"}

# context switch: different compound, same % Mean Degradation of BRD4
// returns % Mean Degradation of BRD4 for CNC(=O)[C@@]1(C)CCCC[C@H]1C(=O)N1CCc2c(Cl)ccc(OCc3nnn(CCNC(=O)CNC(=O)C[C@@H]4N=C(c5ccc(Cl)cc5)c5c(sc(C)c5C)-n5c(C)nnc54)c3C)c2[C@H]1CN1CC2(CC2)CC1=O with BRD4 long isoform (Homo sapiens); value = 91%
